Biological target: T1, human TREM2 (triggering receptor expressed on myeloid cells 2) (human) (UniProt Q9NZC2)
T1 sequence (looked up): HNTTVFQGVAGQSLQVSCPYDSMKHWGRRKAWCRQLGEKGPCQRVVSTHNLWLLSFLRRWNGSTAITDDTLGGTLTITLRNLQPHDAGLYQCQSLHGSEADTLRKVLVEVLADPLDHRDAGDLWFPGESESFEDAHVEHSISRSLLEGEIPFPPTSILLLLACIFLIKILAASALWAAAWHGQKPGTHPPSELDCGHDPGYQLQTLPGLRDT
Test: 2nd screen, 10 nM Ab
Overview of recorded Binding Signal (fold over 6E7 parental antibody) for various binders
# value in fold; strip the unit string

Query block: Dear colleague, I am looking for the recorded Binding Signal (fold over 6E7 parental antibody) of the following binder: 6E7 antibody affinity modulation variant V51 (antibody, V domains shown) VH: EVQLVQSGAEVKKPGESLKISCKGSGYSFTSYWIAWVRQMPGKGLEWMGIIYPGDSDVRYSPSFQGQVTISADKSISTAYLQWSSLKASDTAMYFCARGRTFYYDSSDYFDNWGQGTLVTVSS VL: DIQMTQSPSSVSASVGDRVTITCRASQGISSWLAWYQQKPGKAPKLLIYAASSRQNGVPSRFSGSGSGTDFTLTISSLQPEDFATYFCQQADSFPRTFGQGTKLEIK
Result block: 3.18

Query block: Dear colleague, I am looking for the recorded Binding Signal (fold over 6E7 parental antibody) of the following binder: 6E7 antibody affinity modulation variant V13 (antibody, V domains shown) VH: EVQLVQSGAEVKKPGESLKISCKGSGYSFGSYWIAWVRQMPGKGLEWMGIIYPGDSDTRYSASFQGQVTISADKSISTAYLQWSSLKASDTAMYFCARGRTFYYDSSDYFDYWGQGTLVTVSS VL: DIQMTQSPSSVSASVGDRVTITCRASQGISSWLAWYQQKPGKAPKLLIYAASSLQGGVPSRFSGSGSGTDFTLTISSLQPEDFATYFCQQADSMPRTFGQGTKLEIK
Result block: 1.35

Query block: Dear colleague, I am looking for the recorded Binding Signal (fold over 6E7 parental antibody) of the following binder: 6E7 antibody affinity modulation variant V16 (antibody, V domains shown) VH: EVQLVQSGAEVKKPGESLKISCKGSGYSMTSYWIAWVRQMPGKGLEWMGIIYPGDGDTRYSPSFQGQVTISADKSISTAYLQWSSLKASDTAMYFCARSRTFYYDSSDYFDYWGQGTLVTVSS VL: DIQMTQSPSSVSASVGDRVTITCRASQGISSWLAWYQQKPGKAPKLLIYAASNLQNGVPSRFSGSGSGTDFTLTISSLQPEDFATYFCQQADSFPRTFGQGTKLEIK
Result block: 4.04
